The reported measurements were obtained from PubChem BioAssay AID1996.

study conditions: buffer; pH 7.4; 200.0 µM
Let's look at some compounds and their measured solubility kinetic.

Completed entries (count: 5):
compound: Cc1ccc(CNC(=O)CCc2c(C)[nH]c(=O)c(C#N)c2C)cc1
solubility kinetic: > 48.5 µg/mL
--
compound: CCn1cc(C(=O)N2CCOCC2)c2ccccc21
solubility kinetic: > 38.7 µg/mL
--
compound: O=C(NCc1ccco1)c1nn2cccnc2c1Cl
solubility kinetic: > 41.5 µg/mL
--
compound: CCCCOC(=O)Nc1nnc(C(C)C)s1
solubility kinetic: > 36.5 µg/mL
--
compound: Cc1cc(C)n2nc(C(=O)OCC(=O)c3ccccc3)nc2n1
solubility kinetic: > 46.5 µg/mL

Looking up Cc1ccc(N2C(=O)C3CCCN3C2=S)c(C)c1 (centres undefined) , I found its solubility kinetic recorded as > 39.1 µg/mL

Looking up `O=C(CCc1ccccc1)NCC(=O)N/N=C/c1ccc(O)cc1O` , I found its solubility kinetic recorded as > 51.2 µg/mL

Looking up `CCOc1ncccc1C(=O)OCC(=O)NCCCc1ccccc1` , I found its solubility kinetic recorded as > 51.4 µg/mL

Looking up CN1CC(C(=O)c2ccc(F)cc2)C(c2ccc(F)cc2)C1 (centres undefined) , I found its solubility kinetic recorded as > 45.2 µg/mL

Looking up `COc1nc(N)nc(NC(=O)c2cccs2)c1N=O` , I found its solubility kinetic recorded as 25.2 µg/mL

Looking up `COc1ccccc1C(=O)NCCSCc1c(F)cccc1Cl` , I found its solubility kinetic recorded as 13.6 µg/mL

Looking up CC1CC(NC2=NCCS2)CC(C)(C)C1 (centres undefined) , I found its solubility kinetic recorded as 24.6 µg/mL

Looking up `O=C(N/N=C/c1cccnc1)c1cc(C2CC2)nc2ccccc12` , I found its solubility kinetic recorded as > 47.5 µg/mL

Looking up `O=[N+]([O-])c1cccc(NC(=S)N2CCc3ccccc3C2)c1` , I found its solubility kinetic recorded as 1.3 µg/mL
